# EXPERIMENTAL_DETAILS: pKa determination by UV/vis spectrometric method
# Format: physicochemical
# ASSAY_CONTEXT: single determination (one of three), buffers I = 0.1 M, 1% methanol, read-out: pKa
Below: a set of entries, each annotated with reported pKa.

MOLECULE	pKa
Oc1cccc(/C=C/c2cccs2)c1 [Compound 3, (E)-3-(2-(Thiophen-2-yl)vinyl)phenol]	10.1
Oc1ccccc1/C=C/c1cccs1 [Compound 2, (E)-2-(2-(Thiophen-2-yl)vinyl)phenol]	9.85
COc1ccc(/C=C/c2ccc(C)s2)c(O)c1	9.62
Cc1ccc(/C=C/c2ccccc2O)s1	9.45
COc1ccc(/C=C/c2cccs2)c(O)c1	9.19

----------
# EXPERIMENTAL_DETAILS: pKa determination by UV/vis spectrometric method
# Type: physicochemical
# ASSAY_CONTEXT: mean of three determinations, buffers I = 0.1 M, 1% methanol, read-out: pKa¯ ± Scatter Value

COMPOUND	pKa
COc1ccc(/C=C/c2ccc(C)s2)c(O)c1 [Compound 6]	9.62
Cc1ccc(/C=C/c2ccccc2O)s1 [Compound 5]	9.4
COc1ccc(/C=C/c2cccs2)c(O)c1 [Compound 4]	9.17
Oc1ccccc1/C=C/c1cccs1 [Compound 2, (E)-2-(2-(Thiophen-2-yl)vinyl)phenol]	9.88
Oc1cccc(/C=C/c2cccs2)c1 [Compound 3, (E)-3-(2-(Thiophen-2-yl)vinyl)phenol]	10.1
